- Test system: Candida albicans
- Test summary: Antifungal activity against Candida albicans Y0109 assessed as inhibition of fungal growth incubated for 24 hrs by broth microdilution method
- Type: functional
Metric name: MIC80 (µg/mL)
Give bare numbers, in µg/mL.

1) CCCN(CCC)CCc1cn(C[C@H]2CO[C@](Cn3ccnc3)(c3ccc(O)cc3F)O2)nn1 (mixture of isomers) = 0.016
2) OC(Cn1cncn1)(Cn1cncn1)c1ccc(F)cc1F = 0.25
3) Oc1ccc([C@@]2(Cn3ccnc3)OC[C@H](Cn3cc(CCN4CCC(O)CC4)nn3)O2)c(F)c1 (mixture of isomers) = 0.063

# ---- query compound ----
Recall the reported MIC80 of Cc1cccc(-c2cn(C[C@H]3CO[C@](Cn4ccnc4)(c4ccc(O)cc4F)O3)nn2)c1 (mixture of isomers) when tested on Candida albicans.
0.063

###

Would you mind telling me the reported MIC80 of each entry?
- Tested on: Candida albicans
- Test summary: Antifungal activity against Candida albicans Y0109 assessed as inhibition of fungal growth incubated for 24 hrs by broth microdilution method
- Type: functional
Numbers only, in µg/mL.

1. Oc1ccc([C@@]2(Cn3ccnc3)OC[C@H](Cn3cc(COc4ccccc4)nn3)O2)c(F)c1 (mixture of isomers) = 0.063
2. OCC1CCN(CCc2cn(C[C@H]3CO[C@](Cn4ccnc4)(c4ccc(O)cc4F)O3)nn2)CC1 (mixture of isomers) = 0.016
3. C[C@@H](c1ncncc1F)[C@](O)(Cn1cncn1)c1ccc(F)cc1F = 0.016
4. Oc1ccc([C@@]2(Cn3ccnc3)OC[C@H](Cn3cc(-c4cccc(F)c4)nn3)O2)c(F)c1 (mixture of isomers) = 0.063
5. CCCCCOc1ccc(-c2cn(C[C@H]3CO[C@](Cn4ccnc4)(c4ccc(O)cc4F)O3)nn2)cc1 (mixture of isomers) = 0.016

Batch request: MIC80 for each of the following compounds.
1. N#CCc1ccc(-c2cn(C[C@H]3CO[C@](Cn4ccnc4)(c4ccc(O)cc4F)O3)nn2)cc1 (mixture of isomers)
2. Oc1ccc([C@@]2(Cn3ccnc3)OC[C@H](Cn3cc(C(O)c4ccccc4)nn3)O2)c(F)c1 (mixture of isomers)
3. CNCCc1cn(C[C@H]2CO[C@](Cn3ccnc3)(c3ccc(O)cc3F)O2)nn1 (mixture of isomers)
4. CCCc1ccc(-c2cn(C[C@H]3CO[C@](Cn4ccnc4)(c4ccc(O)cc4F)O3)nn2)cc1 (mixture of isomers)
5. Oc1ccc([C@@]2(Cn3ccnc3)OC[C@H](Cn3cc(C4CC4)nn3)O2)c(F)c1 (mixture of isomers)
6. Oc1ccc([C@@]2(Cn3ccnc3)OC[C@H](Cn3cc(-c4ccc(F)cc4)nn3)O2)c(F)c1 (mixture of isomers)
7. CC1CCN(CCc2cn(C[C@H]3CO[C@](Cn4ccnc4)(c4ccc(O)cc4F)O3)nn2)CC1 (mixture of isomers)
8. Oc1ccc([C@@]2(Cn3ccnc3)OC[C@H](Cn3cc(CCNC4CC4)nn3)O2)c(F)c1 (mixture of isomers)

[0.063, 0.063, 0.063, 0.063, 0.063, 0.063, 0.063, 0.063]

Batch request: MIC80 for each of the following compounds.
1. OCCC1CCN(CCc2cn(C[C@H]3CO[C@](Cn4ccnc4)(c4ccc(O)cc4F)O3)nn2)CC1 (mixture of isomers)
2. Oc1ccc([C@@]2(Cn3ccnc3)OC[C@H](Cn3cc(CCN4CCCCC4)nn3)O2)c(F)c1 (mixture of isomers)

1. 0.016
2. 0.063
